All values here come from patent US7109338B2.

- Test system: human rhinovirus type 1B (HRV 1B, B632)
- protocol.description: Anti-rhinovirus activity (MTT), HRV1B
- Type: cell-based
- stated.conditions: Human rhinovirus sp., HRV1B; HeLa (Ohio strain) cells, MTT method, 33° C.; read-out: IC50 HRV1B
Kindly state log10 IC50 for each of the entries shown.
Each number you see is log10 of IC50, and the unit inside the log is µg/mL.

Example molecules with recorded log10 IC50:
1) CCn1c2c(c(=O)c3cc(C(C)C)ccc31)Cc1ccccc1-2 [Compound B2] ... -0.27
2) Cc1c(-c2ccccc2)n(-c2ccccc2)c2ccc(C(C)C)cc2c1=O [Compound A320] ... -0.92
3) CCn1c(-c2ccc(OC)c(C)c2)c(C)c(=O)c2c(C)c(OCC(C)C)ccc21 [Compound A191] ... 0.11

Please report log10 IC50 for every entry that follows.
1. CCn1c(-c2ccccc2)c(C)c(=O)c2cc(C(C)C)ccc21 [Compound A37]
2. CCn1c2c(c(=O)c3cc(C(C)C)ccc31)C(C)c1ccccc1-2 (stereo not drawn) [Compound C40]
3. CCn1c2c(c(=O)c3cc(C(C)C)ccc31)Cc1ccsc1-2 [Compound D50]

Response:
1: 0.00; 2: -0.29; 3: -0.60

Please report log10 IC50 for every entry that follows.
1. CCn1c2c(c(=O)c3cc(C(C)C)ccc31)C(O)c1ccccc1-2 (stereo not drawn) [Compound C43]
2. CCn1c(-c2ccco2)cc(=O)c2cc(C(C)C)ccc21 [Compound A304]
3. CCn1c2c(c(=O)c3cc(C(C)C)ccc31)Cc1c(C)csc1-2 [Compound D52]

Response:
1. 0.18
2. -0.12
3. -0.05

###

Kindly state Cytotoxicity CC50 HeLa(Ohio) for each of the entries shown.
- Tested on: HeLa (Ohio strain)cells
- protocol.description: Cytotoxicity (MTT, without virus), HeLa(Ohio)
- stated.conditions: HeLa(Ohio), no virus, incubated for 4 days

1) CCn1c(-c2cccc(C)c2)c(C)c(=O)c2c(Cl)c(OCC(C)C)ccc21 ... >2.5 µg/mL
2) CCn1c(-c2ccccc2)c(C)c(=O)c2c(C)c(OCC(C)C)ccc21 ... >5 µg/mL
3) CC(C)c1ccc2c(c1)c(=O)cc(-c1cccs1)n2C ... 11 µg/mL
4) CCn1c(-c2ccccc2)c(C)c(=O)c2c(Cl)c(OCC(C)C)ccc21 ... >4 µg/mL
5) Cc1c(-c2cccs2)n(C)c2ccc(OCC(C)C)c(C)c2c1=O ... >2.5 µg/mL

Please report Cytotoxicity CC50 HeLa(Ohio) for every entry that follows.
1. CC(C)c1ccc2c(c1)c(=O)cc(-c1ccc(Cl)c(Cl)c1)n2C
2. Cc1c(-c2ccccc2)n(C)c2ccc(NCC(C)C)cc2c1=O
3. Cc1cc2c(c(C)c1OCC(C)C)c(=O)cc(-c1ccccc1)n2C
4. CCn1c(-c2ccccc2)c(C)c(=O)c2cc(OCC(C)C)ccc21

Response:
[">4 µg/mL", ">5 µg/mL", ">4 µg/mL", ">4 µg/mL"]

Please report Cytotoxicity CC50 HeLa(Ohio) for every entry that follows.
1. CCn1c(-c2ccccc2)c(C)c(=O)c2cc(-c3ccccc3)ccc21
2. Cc1ccc(-c2cc(=O)c3cc(C(C)C)ccc3n2C)s1

Response:
1: >2.5 µg/mL; 2: >10 µg/mL

Please report Cytotoxicity CC50 HeLa(Ohio) for every entry that follows.
1. CC(C)c1ccc2c(c1)c(=O)cc(-c1ccc(Br)s1)n2C
2. CCn1c(-c2ccn(C)c2)cc(=O)c2cc(C(C)C)ccc21
3. CCn1c(-c2ccsc2)cc(=O)c2cc(C(C)C)ccc21

Response:
1. >5 µg/mL
2. 18 µg/mL
3. 15 µg/mL
